Test system: P. falciparum stage V gametocytes
Set-up: BacTiter-Glo ATP luminescence viability of purified stage V gametocytes in 384-well plates, per cent inhibition versus DMSO
Settings: 48 h, 5 µM; inhibitor
The whole screen tested about 13,000 compounds, of which about 3,200 (25%) showed an effect of 50% or more. The list shows a part of the results.
result-type: % Inhibition

Answered cases to consult:
O=C(c1ccc(Cl)c(Cl)c1)N1CCc2c([nH]c3ccccc23)C1CN1CCCC1 (stereo not drawn) [TCMDC-139011] ... 81.19%
O=S(=O)(NCCN1CCCC1)c1cccc(-c2ccc(CNCc3ccccc3)cc2)c1 [TCMDC-132240] ... 108.6%
CC(C)CC1c2[nH]c3ccccc3c2CCN1C(=O)CCc1ccccc1 (stereo not drawn) [TCMDC-123996] ... -45.79%
Cc1cc(NCCC(=O)NCCc2ccccc2)nc(NCCc2ccc(F)cc2)n1 [TCMDC-134782] ... 63.79%

// recorded % Inhibition for Cc1cccc(CNc2nc(C)cc(NCCC(=O)NCc3cccc(F)c3)n2)c1 [TCMDC-134882] : 28.72%

// recorded % Inhibition for O=C(Nc1ccc(Cn2ncc(N3CCCNCC3)c(Cl)c2=O)cc1)Nc1ccc(F)cc1[N+](=O)[O-] [TCMDC-141926] : -31.19%

// recorded % Inhibition for O=[N+]([O-])c1ccc(N2CCCN(C(=S)Nc3ccc(F)cc3Br)CC2)nc1 [TCMDC-124054] : 81.59%

// recorded % Inhibition for O=S(=O)(NCCN1CCCC1)c1cccc(-c2cccc(CNCc3ccccc3)c2)c1 [TCMDC-132226] : 104%

// recorded % Inhibition for Oc1ccccc1CNCC12CC3CC(CC(C3)C1)C2 [TCMDC-125554] : -22.39%

// data source = paper PMC4552634
